Experiment: Determination of bio-accumulation: urinary clearance pharmacokinetic study in rats
Conditions: renal elimination half-life of parent compound from urine, oral gavage, 73 micro Moles per kg body weight, exponential least squares curve fitting
Each entry below carries its reported T½.
Quick reminder: number only, in h, skip the unit.

Before answering, review these 4 worked examples.
Identify the reported T½ for the following entry. `N.O=C(O)C(F)(F)OC(F)(F)OC(F)(F)F`
12

Identify the reported T½ for the following entry. N.O=C(O)C(F)(F)C(F)OC(F)(F)C(F)(F)C(F)(F)OC(F)(F)F (stereo not shown)
12

Identify the reported T½ for the following entry. `N.O=C(O)C(F)(F)OC(F)(F)OC(F)(F)OC(F)(F)F`
12

Identify the reported T½ for the following entry. N.O=C(O)C(F)OC(F)(F)C(F)(F)C(F)(F)OC(F)(F)F (stereo not shown)
11

New cases:
Identify the reported T½ for the following entry. `N.O=C(O)C(F)(F)OC(F)(F)C(F)(F)OC(F)(F)C(F)(F)F`
10

Identify the reported T½ for the following entry. `N.O=C(O)C(F)(F)C(F)(F)OC(F)(F)C(F)(F)C(F)(F)C(F)(F)F`
31

Identify the reported T½ for the following entry. N.O=C(O)C(F)(F)C(F)(F)C(F)(F)C(F)(F)C(F)(F)OC(F)C(F)(F)F (stereo not shown)
24

---

Assay: Determination of bio-accumulation: urinary clearance pharmacokinetic study in rats
Details: renal elimination half-life of parent compound from urine, oral gavage, 73 micro Moles per kg body weight, exponential least squares curve fitting
Each entry below carries its reported T½.
Quick reminder: number only, in h, skip the unit.

Before answering, review these 3 worked examples.
Identify the reported T½ for the following entry. `N.O=C(O)C(F)(F)C(F)(F)OC(F)(F)C(F)(F)F`
10

Identify the reported T½ for the following entry. N.O=C(O)C(F)(F)C(F)(F)C(F)(F)OC(F)C(F)(F)F (stereo not shown)
8

Identify the reported T½ for the following entry. `N.O=C(O)C(F)(F)C(F)(F)OC(F)(F)C(F)(F)C(F)(F)F`
12

Shifting focus to the compound that follows.
Identify the reported T½ for the following entry. `N.O=C(O)C(F)(F)C(F)(F)OC(F)(F)F`
11

---

Assay: Determination of bio-accumulation: urinary clearance pharmacokinetic study in rats
Settings: renal elimination half-life of parent compound from urine, oral gavage, 73 micro Moles per kg body weight, exponential least squares curve fitting
experimental.readout: T½ (h)
Quick reminder: number only, in h, skip the unit.

Before answering, review these 2 worked examples.
Identify the reported T½ for the following entry. N.O=C(O)C(F)(F)OC(F)(F)C(F)(F)C(F)(F)F [Compound 5, C3F7—O—CF2—COONH4]
11

Identify the reported T½ for the following entry. N.O=C(O)C(F)(F)C(F)OC(F)(F)C(F)(F)C(F)(F)F (stereo not drawn) [Compound 13, C3F7—O—CFH—CF2COONH4]
11

Shifting focus to the compound that follows.
Identify the reported T½ for the following entry. N.O=C(O)C(F)(F)OC(F)(F)C(F)(OC(F)(F)C(F)(F)C(F)(F)F)C(F)(F)F (stereo not drawn) [Compound C-3, CF3CF2CF2OCF(CF3)CF2OCF2COONH4, reference compound]
95

---

Each entry below carries its reported % Recovery (96 h).
Experiment: Determination of bio-accumulation: urinary clearance pharmacokinetic study in rats
Settings: parent compound recovered in urine after 96 h, oral gavage, 73 micro Moles per kg body weight
Quick reminder: number only, in %, skip the unit.

Before answering, review these 3 worked examples.
Identify the reported % Recovery (96 h) for the following entry. N.O=C(O)C(F)(F)C(F)OC(F)(F)C(F)(F)C(F)(F)F (stereo not shown)
94

Identify the reported % Recovery (96 h) for the following entry. `N.O=C(O)C(F)(F)OC(F)(F)OC(F)(F)F`
96

Identify the reported % Recovery (96 h) for the following entry. N.O=C(O)C(F)(F)OC(F)(F)C(F)(F)C(F)(F)OC(F)(F)F [Compound 1, CF3—O—(CF2)3—O—CF2—COONH4]
73

Shifting focus to the compound that follows.
Identify the reported % Recovery (96 h) for the following entry. N.O=C(O)C(F)(F)C(F)(F)C(F)(F)C(F)(F)C(F)(F)C(F)(F)C(F)(F)F [Compound C-1, C7F15COONH4, reference compound]
6
